Source of measurements: ChEMBL document CHEMBL2073782

Target: Oatp1 (Solute carrier organic anion transporter family member 1A1) (Rattus norvegicus, UniProt P46720)
Sequence (P46720 whole entry): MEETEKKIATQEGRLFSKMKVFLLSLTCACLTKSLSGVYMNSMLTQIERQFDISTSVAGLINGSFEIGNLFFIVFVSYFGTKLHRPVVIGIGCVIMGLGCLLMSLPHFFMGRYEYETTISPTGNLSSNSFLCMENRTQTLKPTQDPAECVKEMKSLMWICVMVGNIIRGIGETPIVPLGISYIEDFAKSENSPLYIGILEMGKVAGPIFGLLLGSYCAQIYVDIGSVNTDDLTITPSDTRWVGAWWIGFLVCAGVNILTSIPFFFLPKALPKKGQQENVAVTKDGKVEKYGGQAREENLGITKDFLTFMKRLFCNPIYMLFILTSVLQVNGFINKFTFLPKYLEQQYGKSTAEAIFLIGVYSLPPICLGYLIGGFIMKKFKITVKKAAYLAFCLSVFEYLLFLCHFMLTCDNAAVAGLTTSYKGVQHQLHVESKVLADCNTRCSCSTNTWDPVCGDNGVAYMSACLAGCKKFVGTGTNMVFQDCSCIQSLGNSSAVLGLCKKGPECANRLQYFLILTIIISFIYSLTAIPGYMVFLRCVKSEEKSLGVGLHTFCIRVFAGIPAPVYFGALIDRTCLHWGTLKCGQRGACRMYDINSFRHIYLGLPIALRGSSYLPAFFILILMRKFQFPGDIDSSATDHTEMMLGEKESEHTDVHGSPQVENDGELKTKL
Test: in vitro
Details: pig, Oatp1-expressing LLC-PK1 cells, probe E217betaG
observed.property: activity at 1000 µM (%)
The response must be a number in % with no trailing unit.

Prompt: Respond only with activity at 1000 µM recorded for COc1ccc2cc([C@H](C)C(=O)O)ccc2c1
Completion: 19.9

----------
Target: Solute carrier organic anion transporter family member 1A1 (Rattus norvegicus, UniProt P46720)
Sequence (P46720 whole entry): as above
Assay: TP_TRANSPORTER: inhibition of E217betaG uptake in Oatp1-expressing LLC-PK1 cells
observed.property: Ki (µM)
Response body: numeric value in µM, unit text excluded.

>>> value_measured("CC(C)Cc1ccc(C(C)C(=O)O)cc1 (configuration not stated)")
126

Let's switch to this compound now.
Prompt: Consider the compound CO[C@H]1/C=C/O[C@@]2(C)Oc3c(C)c(O)c4c(O)c(c(/C=N/N5CCN(C)CC5)c(O)c4c3C2=O)NC(=O)/C(C)=C\C=C\[C@H](C)[C@H](O)[C@@H](C)[C@@H](O)[C@@H](C)[C@H](OC(C)=O)[C@@H]1C . State its measured Ki.
Completion: 18.2

----------
Molecular target: Oatp2 (Solute carrier organic anion transporter family member 1A4) (Rattus norvegicus, UniProt O35913)
Assay: in vitro
Details: pig, Oatp2-expressing LLC-PK1 cells, probe Digoxin
observed.property: activity at 1000 µM
The reply should read as a number followed by its unit.

Prompt: Give a short answer stating reported activity at 1000 µM for COc1ccc2cc([C@H](C)C(=O)O)ccc2c1 .
Completion: 52.2%

----------
Target: Oatp2 (Solute carrier organic anion transporter family member 1A4) (Rattus norvegicus, UniProt O35913)
Assay: TP_TRANSPORTER: inhibition of Digoxin uptake (Digoxin: 0.05 uM, Indomethacin: 1000 uM) in Oatp2-expressing LLC-PK1 cells
Format: functional, cell-based
Parameters: scale not given: the % may be the effect or the level left
Conditions: pig, probe Digoxin, read-out: Activity
observed.property: activity at 1000 µM (%)
Use % as the unit, but write only the number.

Prompt: State, in one line, measured activity at 1000 µM of COc1ccc2c(c1)c(CC(=O)O)c(C)n2C(=O)c1ccc(Cl)cc1
Completion: 14.3

----------
Molecular target: Oatp2 (Solute carrier organic anion transporter family member 1A4) (Rattus norvegicus, UniProt O35913)
Assay: TP_TRANSPORTER: inhibition of Digoxin uptake (Digoxin: 0.05 uM, Deoxycorticosterone: 100 uM) in Oatp2-expressing LLC-PK1 cells
Assay type: functional, cell-based
Design: scale not given: the % may be the effect or the level left
Details: pig, probe Digoxin, read-out: Activity
observed.property: activity at 100 µM (%)
State the answer as a number, implicitly in %.

Prompt: Give the reported value of activity at 100 µM for this record: C[C@]12CC[C@H]3[C@@H](CCC4=CC(=O)CC[C@@]43C)[C@@H]1CC[C@@H]2C(=O)CO
Completion: 13.6

----------
Target: Oatp2 (Solute carrier organic anion transporter family member 1A4) (Rattus norvegicus)
Experiment: TP_TRANSPORTER: inhibition of Digoxin uptake (Digoxin: 0.05 uM, Corticosterone: 100 uM) in Oatp2-expressing LLC-PK1 cells
Format: functional, cell-based
Design: scale not given: the % may be the effect or the level left
Settings: pig, probe Digoxin, read-out: Activity
observed.property: activity at 100 µM (%)
The figure you give is taken to be in %; do not add the unit.

Prompt: Look up and report measured activity at 100 µM for this entry: C[C@]12C[C@H](O)[C@H]3[C@@H](CCC4=CC(=O)CC[C@@]43C)[C@@H]1CC[C@@H]2C(=O)CO [CORTICOSTERONE]
Completion: 32.9

----------
Target: Solute carrier organic anion transporter family member 1A4 (Rattus norvegicus)
Sequence (O35913 whole entry): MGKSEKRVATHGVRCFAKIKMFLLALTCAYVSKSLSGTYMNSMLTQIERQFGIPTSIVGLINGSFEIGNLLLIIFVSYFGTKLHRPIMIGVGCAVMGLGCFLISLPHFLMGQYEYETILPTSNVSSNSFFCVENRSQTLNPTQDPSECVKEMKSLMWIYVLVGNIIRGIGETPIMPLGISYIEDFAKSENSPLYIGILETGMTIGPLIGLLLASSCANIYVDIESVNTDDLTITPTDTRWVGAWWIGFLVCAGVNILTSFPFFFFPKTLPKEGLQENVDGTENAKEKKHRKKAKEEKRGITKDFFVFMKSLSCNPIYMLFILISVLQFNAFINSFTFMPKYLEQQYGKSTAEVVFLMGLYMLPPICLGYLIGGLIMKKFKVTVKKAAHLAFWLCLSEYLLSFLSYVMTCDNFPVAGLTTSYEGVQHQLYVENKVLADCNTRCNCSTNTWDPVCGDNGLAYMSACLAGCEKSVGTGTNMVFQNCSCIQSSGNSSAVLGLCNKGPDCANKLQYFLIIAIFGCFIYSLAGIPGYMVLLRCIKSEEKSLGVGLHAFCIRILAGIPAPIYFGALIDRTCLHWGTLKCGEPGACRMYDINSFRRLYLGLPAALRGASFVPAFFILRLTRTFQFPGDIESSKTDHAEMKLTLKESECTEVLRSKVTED
Assay: TP_TRANSPORTER: inhibition of Digoxin uptake in Oatp2-expressing LLC-PK1 cells
Examples of compounds with documented Ki follow.
Please reply with the bare figure in µM and do not write the unit itself.

Below are worked cases with known answers.
>>> value_measured("C=C[C@H]1C[N@@]2CC[C@H]1C[C@@H]2[C@@H](O)c1ccnc2ccc(OC)cc12")
120
>>> value_measured("CC(C)Cc1ccc(C(C)C(=O)O)cc1 (centres undefined)")
2430
>>> value_measured("CO[C@H]1/C=C/O[C@@]2(C)Oc3c(C)c(O)c4c(O)c(c(/C=N/N5CCN(C)CC5)c(O)c4c3C2=O)NC(=O)/C(C)=C\\C=C\\[C@H](C)[C@H](O)[C@@H](C)[C@@H](O)[C@@H](C)[C@H](OC(C)=O)[C@@H]1C")
1.46

For the next question, use this compound.
Prompt: Look up Ki of C=C[C@H]1C[N@@]2CC[C@H]1C[C@H]2[C@H](O)c1ccnc2ccc(OC)cc12 and report it.
Completion: 3.81

----------
Target: Oatp1 (Solute carrier organic anion transporter family member 1A1) (Rattus norvegicus, UniProt P46720)
Test: TP_TRANSPORTER: inhibition of E217betaG uptake (E217betaG: 0.1 uM, Indomethacin: 1000 uM) in Oatp1-expressing LLC-PK1 cells
Assay type: functional, cell-based
Parameters: scale not given: the % may be the effect or the level left
Settings: pig, probe E217betaG, read-out: Activity
observed.property: activity at 1000 µM (%)
Your answer is read as %, so omit the unit and give the number.

Prompt: Quickly give me recorded activity at 1000 µM for COc1ccc2c(c1)c(CC(=O)O)c(C)n2C(=O)c1ccc(Cl)cc1 [INDOMETHACIN]
Completion: 1.16

----------
Target: UniProtKB O35913
Experiment: TP_TRANSPORTER: inhibition of Digoxin uptake (Digoxin: 0.05 uM, Ketoprofen: 1000 uM) in Oatp2-expressing LLC-PK1 cells
Assay type: functional, cell-based
Set-up: scale not given: the % may be the effect or the level left
Conditions: pig, probe Digoxin, read-out: Activity
observed.property: activity at 1000 µM (%)
Give just the number in %; leave the unit off.

Prompt: Look up and report measured activity at 1000 µM for this entry: CC(C(=O)O)c1cccc(C(=O)c2ccccc2)c1 (stereo unspecified) [KETOPROFEN]
Completion: 30.2

----------
Target: Oatp1 (Solute carrier organic anion transporter family member 1A1) (Rattus norvegicus)
Test: TP_TRANSPORTER: inhibition of E217betaG uptake (E217betaG: 0.1 uM, Ketoprofen: 1000 uM) in Oatp1-expressing LLC-PK1 cells
Assay type: functional, cell-based
Design: scale not given: the % may be the effect or the level left
Settings: pig, probe E217betaG, read-out: Activity
observed.property: activity at 1000 µM (%)
Answer in %, number only, no unit symbol.

Prompt: Give the reported activity at 1000 µM for this molecule. CC(C(=O)O)c1cccc(C(=O)c2ccccc2)c1 (stereo unspecified) [KETOPROFEN]
Completion: 6.89

----------
Biological target: Oatp2 (Solute carrier organic anion transporter family member 1A4) (Rattus norvegicus, UniProt O35913)
Experiment: TP_TRANSPORTER: inhibition of Digoxin uptake (Digoxin: 0.05 uM, Verapamil: 1000 uM) in Oatp2-expressing LLC-PK1 cells
Format: functional, cell-based
Set-up: scale not given: the % may be the effect or the level left
Conditions: pig, probe Digoxin, read-out: Activity
observed.property: activity at 1000 µM (%)
Use % as the unit, but write only the number.

Prompt: Provide activity at 1000 µM value for the following compound: COc1ccc(CCN(C)CCCC(C#N)(c2ccc(OC)c(OC)c2)C(C)C)cc1OC (stereo unspecified)
Completion: 4.12
